Origin of values: a melting point compilation (Tetko et al.; mined from patent text by program, amines drawn as free bases though some values may be those of a salt)

Assignment: determine reported melting point for the given molecules.

Past entries and their recorded results:
molecule=CC(C)(C)c1ccc(CNc2nc(Nc3cccc(C(F)(F)F)c3)nc(C(F)(F)F)n2)cc1 measured_property="melting point" measurement="53 to 55 °C"
molecule="CCN1C(=O)Cc2ccc(C(O)CCl)c(O)c21 (centres undefined)" measured_property="melting point" measurement="141 to 147 °C"
molecule=O=C1NC(=Cc2ccccc2Cl)C(=O)C1=NO measured_property="melting point" measurement="176 °C"
molecule=N#Cc1ccccc1-c1ccc(CNc2cc(Cl)nc3ccnn23)cc1 measured_property="melting point" measurement="162 to 163 °C"
molecule=CN1CCN(c2ccccc2C=C2C(=O)N(Cc3ccc(Cl)c(Cl)c3)c3ccccc32)CC1 measured_property="melting point" measurement="120 to 124 °C"

Hello, I would appreciate it if you could give melting point for each entry below.
1. O=C(O)c1ccc(Cn2cc(C3c4ccccc4C=Cc4ccccc43)c(=S)[nH]c2=O)o1
2. O=C(CCl)n1ccc2cc(F)ccc21
3. O=C1c2ccccc2-c2ccc(-c3nc(COc4ccc(CCCn5ccnc5)cc4)co3)cc21
4. O=C(/C=C/c1ccc2cc[nH]c2c1)CC(=O)/C=C/c1cc(O)ccc1Br

1. 178 to 180 °C
2. 236 to 237 °C
3. 153 to 154 °C
4. 196 to 200 °C

* * *

measured.property: melting point

molecule="O=C(O)c1ccc(OCCNC(=O)C2Cc3ccccc3N2S(=O)(=O)c2ccc(-c3ccc(F)cc3)cc2)cc1F (centres undefined)" measurement="109 to 113 °C"
molecule=CCOC(=O)c1c(N2CCN(C(=O)c3ccco3)CC2)c2sccc2n(CC(=O)c2ccccc2)c1=O measurement="246 °C"
molecule=COc1ncnc2c(Cl)c(NC3=NCCN3)ccc12 measurement="238 to 239 °C"
molecule=CN1c2ccccc2CN(C(=O)c2ccc(C3CCCCC3)cc2)c2ccccc21 measurement="104 to 106 °C"
molecule="CC(=O)OCC1OC(Oc2cc(C)cc(O)c2C(C)=O)C(OC(C)=O)C(OC(C)=O)C1OC(C)=O (centres undefined)" measurement="140 to 142 °C"
molecule=O=C(O)[C@H]1C[C@@H](O)CN1C(=O)Nc1ccc(Cl)cc1 measurement="132 to 134 °C"

Hello, I would appreciate it if you could give melting point for each entry below.
1. Nc1sc(/C=C/CC2CCCCC2)c(CN(C2CCCCC2)C2CCCCC2)c1C(=O)c1ccc(Cl)cc1
2. CC(C=Cc1c(C)cc(C)c(C)c1C)=CC=CC(C)=CC(=O)O
3. CCNc1cc(NS(=O)(=O)c2ccc(N)cc2)nc(N(C)C)n1

147 to 150 °C
201 to 202 °C
237 to 238 °C

* * *

Assignment: determine reported melting point for the given molecules.

Past entries and their recorded results:
molecule=CSc1ncnc2c(N(C)C3CCCCC3)nc(Cl)nc12 measurement="135 to 137 °C"
molecule=CCCc1nn(-c2ccc(C(F)(F)F)cn2)cc1CCCOc1c(C)cnn1CC(=O)O measurement="145 to 146 °C"
molecule=Cc1cc(-c2nc3c(F)c(F)ccc3s2)ccc1N measurement="204 to 205 °C"
molecule=O=C(C1CC1)N1CCCc2oc(-c3ccccc3)cc2C1 measurement="108 to 110 °C"

Please find the next molecule below.
Given COc1cc(N)c(Cl)cc1C(=O)N[C@H]1CCN(Cc2cnccn2)C[C@H]1OC (relative stereo) , state its recorded melting point.
204 °C
